Source of measurements: ChEMBL document CHEMBL2218924

molecular target: Ephrin type-A receptor 5 (Homo sapiens) (UniProt P54756); conditions: at 1 µM
Sequence (P54756 whole entry): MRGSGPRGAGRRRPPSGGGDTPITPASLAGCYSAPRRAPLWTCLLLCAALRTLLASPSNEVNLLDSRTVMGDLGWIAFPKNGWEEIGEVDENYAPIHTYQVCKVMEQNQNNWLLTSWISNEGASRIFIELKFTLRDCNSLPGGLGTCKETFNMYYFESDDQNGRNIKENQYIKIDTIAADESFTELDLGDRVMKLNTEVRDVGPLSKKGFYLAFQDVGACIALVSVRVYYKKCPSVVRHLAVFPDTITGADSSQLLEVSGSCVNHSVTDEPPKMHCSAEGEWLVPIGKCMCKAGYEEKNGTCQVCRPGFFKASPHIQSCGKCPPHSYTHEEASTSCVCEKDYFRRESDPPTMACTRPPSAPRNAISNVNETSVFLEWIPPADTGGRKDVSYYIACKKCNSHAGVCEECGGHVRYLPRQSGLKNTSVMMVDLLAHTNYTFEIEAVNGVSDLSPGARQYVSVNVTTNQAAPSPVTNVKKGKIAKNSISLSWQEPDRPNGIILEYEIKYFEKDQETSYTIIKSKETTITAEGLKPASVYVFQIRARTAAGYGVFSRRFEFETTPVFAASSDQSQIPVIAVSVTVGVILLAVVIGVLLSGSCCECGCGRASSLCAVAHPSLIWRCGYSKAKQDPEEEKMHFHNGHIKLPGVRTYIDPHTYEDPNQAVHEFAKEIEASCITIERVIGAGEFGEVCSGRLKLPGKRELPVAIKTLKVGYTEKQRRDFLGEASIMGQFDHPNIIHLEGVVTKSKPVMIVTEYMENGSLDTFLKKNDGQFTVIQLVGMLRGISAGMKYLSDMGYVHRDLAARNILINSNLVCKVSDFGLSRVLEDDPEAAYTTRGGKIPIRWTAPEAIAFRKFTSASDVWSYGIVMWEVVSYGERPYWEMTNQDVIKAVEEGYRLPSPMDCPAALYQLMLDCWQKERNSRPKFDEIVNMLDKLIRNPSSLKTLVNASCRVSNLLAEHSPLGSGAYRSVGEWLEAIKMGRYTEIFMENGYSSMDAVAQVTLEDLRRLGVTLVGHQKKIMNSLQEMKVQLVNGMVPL
quantity-measured: residual activity (%)
One number for each entry, in %.

Illustrative cases are given below, each with its answer.
molecule: Oc1ccc(-c2nc(-c3ccc(F)cc3)c(-c3ccncc3)[nH]2)cc1
unit-string: %
residual activity: 103

molecule: NC(=O)c1ccc2[nH]c(-c3ccc(Oc4ccc(Cl)cc4)cc3)nc2c1
unit-string: %
residual activity: 114

Count: 2. Required value per item: residual activity.
1. O=C1Nc2ccccc2/C1=C1/Nc2ccccc2/C1=N\OCCC(O)CO (centres undefined)
2. Cc1ccc(S(=O)(=O)/C=C/C#N)cc1

Reply:
59
107

----------
target: Angiopoietin-1 receptor (Homo sapiens) (UniProt Q02763); conditions: at 10 µM
Sequence (Q02763 whole entry): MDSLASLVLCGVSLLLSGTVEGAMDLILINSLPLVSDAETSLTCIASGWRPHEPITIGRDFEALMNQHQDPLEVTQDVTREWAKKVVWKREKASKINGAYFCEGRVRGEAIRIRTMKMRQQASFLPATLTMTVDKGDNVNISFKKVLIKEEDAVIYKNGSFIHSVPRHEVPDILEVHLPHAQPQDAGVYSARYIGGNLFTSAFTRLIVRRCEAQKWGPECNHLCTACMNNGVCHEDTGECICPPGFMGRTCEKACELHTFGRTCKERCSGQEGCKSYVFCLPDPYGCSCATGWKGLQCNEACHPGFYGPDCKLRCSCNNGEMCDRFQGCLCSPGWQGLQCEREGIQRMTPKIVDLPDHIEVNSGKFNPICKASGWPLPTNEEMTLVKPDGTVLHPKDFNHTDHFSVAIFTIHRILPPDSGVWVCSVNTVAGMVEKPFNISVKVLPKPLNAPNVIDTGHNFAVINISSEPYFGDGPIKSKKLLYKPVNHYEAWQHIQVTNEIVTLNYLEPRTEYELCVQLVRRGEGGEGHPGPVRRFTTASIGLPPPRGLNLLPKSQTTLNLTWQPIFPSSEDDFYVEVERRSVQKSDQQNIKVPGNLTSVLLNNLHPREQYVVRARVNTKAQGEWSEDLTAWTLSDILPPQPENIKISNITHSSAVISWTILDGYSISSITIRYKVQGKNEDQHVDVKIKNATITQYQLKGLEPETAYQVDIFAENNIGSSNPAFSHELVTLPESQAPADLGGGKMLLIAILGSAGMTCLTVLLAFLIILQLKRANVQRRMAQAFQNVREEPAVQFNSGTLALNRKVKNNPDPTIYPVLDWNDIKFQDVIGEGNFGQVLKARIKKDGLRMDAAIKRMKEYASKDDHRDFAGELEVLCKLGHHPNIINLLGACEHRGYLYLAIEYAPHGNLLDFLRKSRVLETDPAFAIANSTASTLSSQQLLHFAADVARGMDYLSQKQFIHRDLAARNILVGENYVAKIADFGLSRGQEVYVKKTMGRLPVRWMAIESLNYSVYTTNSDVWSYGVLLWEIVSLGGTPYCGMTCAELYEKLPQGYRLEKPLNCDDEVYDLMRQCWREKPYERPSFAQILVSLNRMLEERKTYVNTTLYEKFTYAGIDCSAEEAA
Definition: the class of an entry is the range in LOW = under 60%, MID = from 60% up to 80%, HIGH = 80% and over that contains its residual activity.

smiles-code: Oc1c2ccccc2c2c3c(cccc13)N=N2
tested-system: Angiopoietin-1 receptor (Homo sapiens) (UniProt Q02763)
assigned-class: MID

smiles-code: CO[C@H]1C[C@@H]2CC[C@@H](C)[C@@](O)(O2)C(=O)C(=O)N2CCCC[C@H]2C(=O)O[C@H]([C@H](C)C[C@@H]2CC[C@@H](O)[C@H](OC)C2)CC(=O)[C@H](C)/C=C(\C)[C@@H](O)[C@@H](OC)C(=O)[C@H](C)C[C@H](C)/C=C/C=C/C=C/1C
tested-system: Angiopoietin-1 receptor (Homo sapiens) (UniProt Q02763)
assigned-class: HIGH

smiles-code: Oc1ccc(-c2nc(-c3ccc(F)cc3)c(-c3ccncc3)[nH]2)cc1
tested-system: Angiopoietin-1 receptor (Homo sapiens) (UniProt Q02763)
assigned-class: LOW

smiles-code: O=C(Nc1cccc(Nc2cc(Nc3cccc(C(F)(F)F)c3)ncn2)c1)C1CC1
tested-system: Angiopoietin-1 receptor (Homo sapiens) (UniProt Q02763)
assigned-class: MID

smiles-code: N#CC(C#N)=C(N)/C(C#N)=C/c1ccc(O)cc1
tested-system: Angiopoietin-1 receptor (Homo sapiens) (UniProt Q02763)
assigned-class: MID

Query: Please let me know in which category the item O=C1NC(=O)c2cc(Nc3ccc(F)cc3)c(Nc3ccc(F)cc3)cc21 belongs.
Reply: LOW

Query: Please let me know in which category the item CC(=O)O/N=C1\C(=C2\C(=O)Nc3cc(Br)ccc32)Nc2ccccc21 belongs.
Reply: HIGH

Query: Please let me know in which category the item Cc1ccc(NC2=CC(=O)c3sc(C)nc3C2=O)cc1 belongs.
Reply: HIGH

----------
target: Serine/threonine-protein kinase DCLK2 (Homo sapiens) (UniProt Q8N568); conditions: at 1 µM
Sequence (Q8N568 whole entry): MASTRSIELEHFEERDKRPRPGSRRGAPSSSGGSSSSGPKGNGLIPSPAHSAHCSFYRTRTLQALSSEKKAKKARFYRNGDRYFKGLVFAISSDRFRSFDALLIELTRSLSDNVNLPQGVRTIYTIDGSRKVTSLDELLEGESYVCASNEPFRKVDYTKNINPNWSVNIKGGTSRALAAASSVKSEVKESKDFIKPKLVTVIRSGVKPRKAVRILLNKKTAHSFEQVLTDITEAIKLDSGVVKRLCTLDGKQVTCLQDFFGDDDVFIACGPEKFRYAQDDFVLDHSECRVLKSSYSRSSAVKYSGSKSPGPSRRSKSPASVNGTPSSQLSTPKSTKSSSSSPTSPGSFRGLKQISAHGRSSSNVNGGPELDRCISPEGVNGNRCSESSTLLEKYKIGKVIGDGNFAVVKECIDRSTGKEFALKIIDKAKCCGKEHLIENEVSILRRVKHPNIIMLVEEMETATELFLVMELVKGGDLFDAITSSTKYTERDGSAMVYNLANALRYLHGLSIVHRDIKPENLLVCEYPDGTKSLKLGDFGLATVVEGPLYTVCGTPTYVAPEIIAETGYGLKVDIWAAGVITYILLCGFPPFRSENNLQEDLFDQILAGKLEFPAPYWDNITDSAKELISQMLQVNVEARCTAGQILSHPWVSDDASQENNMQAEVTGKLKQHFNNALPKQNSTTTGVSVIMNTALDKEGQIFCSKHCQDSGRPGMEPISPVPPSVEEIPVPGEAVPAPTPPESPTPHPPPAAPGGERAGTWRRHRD
quantity-measured: residual activity (%)
Numbers only, in %.

Count: 2. Required value per item: residual activity.
1. CCC(=O)Nc1ccc2ncnc(Nc3cccc(Br)c3)c2c1
2. CO[C@@H]1[C@H](N(C)C(=O)c2ccccc2)C[C@H]2O[C@]1(C)n1c3ccccc3c3c4c(c5c6ccccc6n2c5c31)C(=O)NC4

Reply:
1. 79
2. 75

Count: 3. Required value per item: residual activity.
1. CC(C)n1cnc2c(NCc3ccccc3)nc(NCCCO)nc21
2. Oc1n[nH]c2nnc(-c3c(-c4ccccc4)nn4ccccc34)cc12
3. C[C@@H](N)[C@H]1CC[C@H](C(=O)Nc2ccncc2)CC1

Reply:
100
85
110

Count: 3. Required value per item: residual activity.
1. O=C1c2ccccc2-[n+]2ccc3c([nH]c4ccccc43)c21
2. Oc1ccc(Nc2nc(-c3ccc(Cl)cc3)cs2)cc1
3. Cc1nc(-c2ccccc2)c(-c2ccncc2)o1

Reply:
1. 105
2. 123
3. 124

----------
molecular target: Tyrosine-protein kinase FRK (Homo sapiens) (UniProt P42685); settings: at 10 µM
Sequence (P42685 whole entry): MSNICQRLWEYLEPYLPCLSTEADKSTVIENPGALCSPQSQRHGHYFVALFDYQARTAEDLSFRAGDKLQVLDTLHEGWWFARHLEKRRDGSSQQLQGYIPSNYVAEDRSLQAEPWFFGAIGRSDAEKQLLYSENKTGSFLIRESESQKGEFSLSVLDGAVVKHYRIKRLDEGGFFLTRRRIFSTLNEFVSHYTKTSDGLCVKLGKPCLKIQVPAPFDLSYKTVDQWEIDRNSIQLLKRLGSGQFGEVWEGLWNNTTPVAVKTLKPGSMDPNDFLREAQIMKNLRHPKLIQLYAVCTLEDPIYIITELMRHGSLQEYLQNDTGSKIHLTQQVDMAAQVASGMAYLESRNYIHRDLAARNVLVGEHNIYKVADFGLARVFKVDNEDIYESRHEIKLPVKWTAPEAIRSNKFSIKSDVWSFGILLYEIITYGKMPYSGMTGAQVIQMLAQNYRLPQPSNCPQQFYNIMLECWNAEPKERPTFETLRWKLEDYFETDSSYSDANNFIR
Definition: the class of an entry is the range in bottom range (below 60%), center range (60% to below 90%), top range (90% or more) that contains its residual activity.

Illustrative cases are given below, each with its answer.
smiles-code: Nc1ccc2ncnc(NCCc3ccc(Oc4ccccc4)cc3)c2c1
assigned-class: top range

smiles-code: Cn1cc(/C=C2\C(=O)Nc3ccc(S(N)(=O)=O)cc32)c2ccccc21
assigned-class: bottom range

smiles-code: CCN(CC)CCCCN1c2ccccc2Oc2ccc(Cl)cc21
assigned-class: top range

smiles-code: CN(C)c1ccc(/C=C2\C(=O)Nc3ccccc32)cc1
assigned-class: center range

Query: Please let me know in which category the item O=C(Nc1cccc(Nc2cc(Nc3cccc(C(F)(F)F)c3)ncn2)c1)C1CC1 belongs.
Reply: center range

Query: Please let me know in which category the item N#C/C(=C(\N)Sc1ccc(N)cc1)c1ccccc1C(F)(F)F belongs.
Reply: top range

Query: Please let me know in which category the item COc1ccc(C(=O)Nc2sc3c(c2C(N)=O)CCCC3)cc1OC belongs.
Reply: center range

Query: Please let me know in which category the item Nc1n[nH]c2nnc(-c3c(-c4ccccc4)nn4ccccc34)cc12 belongs.
Reply: bottom range

Query: Please let me know in which category the item O=C1Nc2ccc(Br)cc2/C1=C\c1cc2c([nH]1)CCCC2 belongs.
Reply: top range

Query: Please let me know in which category the item Oc1c2ccccc2c2c3c(cccc13)N=N2 belongs.
Reply: bottom range

Query: Please let me know in which category the item CC[n+]1c(/C=C/N(C)c2ccccc2)n(-c2ccccc2)c2ccc(-c3nc4ccccc4s3)cc21 belongs.
Reply: top range

Query: Please let me know in which category the item Nc1cccc(-c2cc3c(Oc4cccc(O)c4)ncnc3[nH]2)c1 belongs.
Reply: bottom range

Query: Please let me know in which category the item CNc1cc2c(Nc3cccc(Br)c3)ncnc2cn1 belongs.
Reply: bottom range

----------
I'd be grateful if you could share measured residual activity for these entries.
target: High affinity nerve growth factor receptor (Homo sapiens) (UniProt P04629); settings: at 10 µM
Sequence (P04629 33-796 limits assumed): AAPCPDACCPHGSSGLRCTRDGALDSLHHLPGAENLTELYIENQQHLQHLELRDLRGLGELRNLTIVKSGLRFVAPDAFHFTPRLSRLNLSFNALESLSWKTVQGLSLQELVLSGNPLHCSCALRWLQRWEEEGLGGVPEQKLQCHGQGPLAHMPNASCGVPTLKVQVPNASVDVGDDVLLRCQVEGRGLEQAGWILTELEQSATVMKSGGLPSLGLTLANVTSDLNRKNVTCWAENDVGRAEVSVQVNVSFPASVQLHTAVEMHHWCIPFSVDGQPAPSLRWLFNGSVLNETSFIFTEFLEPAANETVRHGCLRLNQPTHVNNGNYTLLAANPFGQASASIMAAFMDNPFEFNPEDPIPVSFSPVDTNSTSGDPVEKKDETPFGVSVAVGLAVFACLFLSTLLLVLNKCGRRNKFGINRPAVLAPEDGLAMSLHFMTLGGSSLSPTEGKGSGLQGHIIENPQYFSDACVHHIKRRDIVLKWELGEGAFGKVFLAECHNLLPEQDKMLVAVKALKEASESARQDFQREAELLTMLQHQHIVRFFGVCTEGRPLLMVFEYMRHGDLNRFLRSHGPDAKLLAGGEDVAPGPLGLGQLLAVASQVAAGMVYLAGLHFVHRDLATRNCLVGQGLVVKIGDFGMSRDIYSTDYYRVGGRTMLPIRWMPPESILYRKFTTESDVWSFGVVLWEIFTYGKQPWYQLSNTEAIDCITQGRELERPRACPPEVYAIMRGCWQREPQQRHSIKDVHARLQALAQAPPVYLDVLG

Illustrative cases are given below, each with its answer.
smiles-code: Cc1cncc2cccc(S(=O)(=O)N3CCCN(C(=O)CN)C[C@H]3C)c12
tested-system: High affinity nerve growth factor receptor (Homo sapiens) (UniProt P04629)
residual activity: -1%

smiles-code: Cn1cnc2cc3c(Nc4cccc(Br)c4)ncnc3cc21
tested-system: High affinity nerve growth factor receptor (Homo sapiens) (UniProt P04629)
residual activity: 82%

smiles-code: Oc1n[nH]c2nnc(-c3c(-c4ccccc4)nn4ccccc34)cc12
tested-system: High affinity nerve growth factor receptor (Homo sapiens) (UniProt P04629)
residual activity: 70%

smiles-code: CC[n+]1c(/C=C/N(C)c2ccccc2)n(-c2ccccc2)c2ccc(-c3nc4ccccc4s3)cc21
tested-system: High affinity nerve growth factor receptor (Homo sapiens) (UniProt P04629)
residual activity: 34%

Count: 3. Required value per item: residual activity.
1. O=C1NC(=O)c2c1c1c3ccccc3[nH]c1c1[nH]c3cc(Br)ccc3c21
2. COc1cc2ncnc(Nc3ccc(NC(=O)c4ccccc4)cc3)c2cc1OC
3. COc1cc2ncnc(N3CCN(C(=O)Nc4ccc(Oc5ccccc5)cc4)CC3)c2cc1OC

Reply:
27%
20%
30%

Count: 3. Required value per item: residual activity.
1. CCN(CC)C(=O)c1ccc(Nc2nc(OCC3CCCCC3)c3nc[nH]c3n2)cc1
2. CN(C)c1ccc(/C=C2\C(=O)Nc3ccccc32)cc1
3. N#C/C(=C(\N)Sc1ccc(N)cc1)c1ccccc1C(F)(F)F

Reply:
1: 0%; 2: 3%; 3: 85%

----------
target: Mast/stem cell growth factor receptor Kit (Homo sapiens); settings: at 10 µM
quantity-measured: residual activity (%)
Numbers only, in %.

smiles-code: CO[C@H]1[C@@H](OC)C[C@H](C)[C@@H](OC)C2=CC(=O)C=C(NC(=O)/C(C)=C/C=C/[C@H](OC)[C@@H](OC(N)=O)/C(C)=C/[C@@H]1C)C2=O
obs-value: 98
--
smiles-code: Oc1n[nH]c2nnc(-c3c(-c4ccccc4)nn4ccccc34)cc12
obs-value: 104
--
smiles-code: CCN(CC)CCCCN1c2ccccc2Oc2ccc(Cl)cc21
obs-value: 107
--
smiles-code: C[C@@H](N)[C@H]1CC[C@H](C(=O)Nc2ccncc2)CC1
obs-value: 106
--
smiles-code: COc1cc2ncnc(Nc3ccc(NC(=O)c4ccccc4)cc3)c2cc1OC
obs-value: 59

Count: 2. Required value per item: residual activity.
1. N#Cc1cnc2cnc(NCc3cccnc3)cc2c1Nc1ccc(F)c(Cl)c1
2. Cc1ccc(NC2=CC(=O)c3sc(C)nc3C2=O)cc1

Reply:
1: 92; 2: 107

----------
molecular target: Serine/threonine-protein kinase pim-2 (Homo sapiens) (UniProt Q9P1W9); conditions: at 10 µM
Sequence (Q9P1W9 whole entry, looked up): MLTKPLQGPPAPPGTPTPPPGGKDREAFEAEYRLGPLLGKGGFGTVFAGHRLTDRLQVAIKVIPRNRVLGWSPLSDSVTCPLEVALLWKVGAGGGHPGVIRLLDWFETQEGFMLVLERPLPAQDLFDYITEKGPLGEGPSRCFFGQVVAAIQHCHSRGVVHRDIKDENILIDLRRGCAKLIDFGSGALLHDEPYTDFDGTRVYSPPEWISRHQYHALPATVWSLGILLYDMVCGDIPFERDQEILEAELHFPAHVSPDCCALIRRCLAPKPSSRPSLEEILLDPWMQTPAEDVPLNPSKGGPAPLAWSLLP
quantity-measured: residual activity (%)
One number for each entry, in %.

Illustrative cases are given below, each with its answer.
smiles-code: CC(=O)O/N=C1\C(=C2\C(=O)Nc3cc(Br)ccc32)Nc2ccccc21
tested-system: Serine/threonine-protein kinase pim-2 (Homo sapiens) (UniProt Q9P1W9)
unit-string: %
residual activity: 67
//
smiles-code: O=C1c2ccccc2-[n+]2ccc3c([nH]c4ccccc43)c21
tested-system: Serine/threonine-protein kinase pim-2 (Homo sapiens) (UniProt Q9P1W9)
unit-string: %
residual activity: 130
//
smiles-code: CCC(=O)Nc1ccc2ncnc(Nc3cccc(Br)c3)c2c1
tested-system: Serine/threonine-protein kinase pim-2 (Homo sapiens) (UniProt Q9P1W9)
unit-string: %
residual activity: 94
//
smiles-code: COc1ccc(CNc2nc(N(CCO)CCO)nc3c2ncn3C(C)C)cc1
tested-system: Serine/threonine-protein kinase pim-2 (Homo sapiens) (UniProt Q9P1W9)
unit-string: %
residual activity: 130
//
smiles-code: O=C(Nc1cccc(Nc2cc(Nc3cccc(C(F)(F)F)c3)ncn2)c1)C1CC1
tested-system: Serine/threonine-protein kinase pim-2 (Homo sapiens) (UniProt Q9P1W9)
unit-string: %
residual activity: 108

Count: 4. Required value per item: residual activity.
1. COc1cc2ncnc(N3CCN(C(=O)Nc4ccc(Oc5ccccc5)cc4)CC3)c2cc1OC
2. O=C(O)c1ccc2c3c1cccc3c(=O)n1c3ccccc3nc21
3. COc1cccc(-c2cc(=O)c3ccccc3o2)c1N
4. COc1cc2ncc(-c3ccccc3)nc2cc1OC

Reply:
149
0
102
144

Count: 2. Required value per item: residual activity.
1. Cc1nc(-c2ccccc2)c(-c2ccncc2)o1
2. COc1ccc(OC)c2c(=S)c3ccccc3[nH]c12

Reply:
1: 117; 2: 77
